Each recorded value in this set is attributed to paper PMC9516332.

- Tested on: panel of 255 wild-type kinases
- Experiment Description: Kinase panel profiling at 1 µmol/L (MSA or IMAP), percentage inhibition
- Type: biochemical
- Run Conditions: kinase FYN [isoform b]; 1 µmol/L single concentration
Quick list: %-inhibition at 1 µmol/L, FYN [isoform b] per entry.
Measured Metric: %-inhibition at 1 µmol/L, FYN [isoform b] (%)

[[record]]
molecule = "FC(F)(F)c1ccc(CNc2ccc(Cc3c[nH]c4ncc(Cl)cc34)cn2)cn1 [pexidartinib]"
assay_target = "panel of 255 wild-type kinases"
observed_result = 1.3

[[record]]
molecule = "CCN1C(=O)N(c2c(F)c(OC)cc(OC)c2F)Cc2cnc3[nH]c(CN4CCOCC4)cc3c21 [pemigatinib]"
assay_target = "panel of 255 wild-type kinases"
observed_result = 14

[[record]]
molecule = "Cn1cc(-c2cc3c(N4CCN(c5ncc([C@@](C)(N)c6ccc(F)cc6)cn5)CC4)ncnn3c2)cn1 [avapritinib]"
assay_target = "panel of 255 wild-type kinases"
observed_result = 3

[[record]]
molecule = "CCc1nc(C(N)=O)c(Nc2ccc(N3CCC(N4CCN(C)CC4)CC3)c(OC)c2)nc1NC1CCOCC1 [gilteritinib]"
assay_target = "panel of 255 wild-type kinases"
observed_result = 86

[[record]]
molecule = "CCn1c(=O)c(-c2cc(NC(=O)Nc3ccccc3)c(F)cc2Br)cc2cnc(NC)cc21 [ripretinib]"
assay_target = "panel of 255 wild-type kinases"
observed_result = 33

[[record]]
molecule = "CCN1CCN(c2ccc(Nc3cc(N(C)C(=O)Nc4c(Cl)c(OC)cc(OC)c4Cl)ncn3)cc2)CC1 [infigratinib]"
assay_target = "panel of 255 wild-type kinases"
observed_result = 43

[[record]]
molecule = "COC(=O)N[C@@H](C)CNc1nccc(-c2cn(C(C)C)nc2-c2cc(Cl)cc(NS(C)(=O)=O)c2F)n1 [encorafenib]"
assay_target = "panel of 255 wild-type kinases"
observed_result = 4.62

[[record]]
molecule = "C=CC(=O)N1CCC([C@@H]2CCNc3c(C(N)=O)c(-c4ccc(Oc5ccccc5)cc4)nn32)CC1 [zanubrutinib]"
assay_target = "panel of 255 wild-type kinases"
observed_result = 22

[[record]]
molecule = "C[C@H]1Oc2cc(cnc2N)-c2c(nn(C)c2C#N)CN(C)C(=O)c2ccc(F)cc21 [lorlatinib]"
assay_target = "panel of 255 wild-type kinases"
observed_result = 4

